- Test system: HIV with mutations in the HIV protease sequence
- assay: Phenotypic fold resistance to protease inhibitors, protease mutations 84A/84L/84C/54M/54L/54V in a background (Examples 8-13)
- Assay type: cell-based, HIV-1
- conditionSet: Table 13, V052970, genotype 54L
Kindly return Satisfied if reported Fold change in IC50 is no lower than 0.7 fold; return Not satisfied if it is lower.

>  <molSmiles>
CC(C)c1nc(CN(C)C(=O)N[C@H](C(=O)N[C@@H](Cc2ccccc2)C[C@H](O)[C@H](Cc2ccccc2)NC(=O)OCc2cncs2)C(C)C)cs1

>  <studySystem>
HIV with mutations in the HIV protease sequence

>  <assignedClass>
Satisfied

$$$$
>  <molSmiles>
CC(C)CN(C[C@@H](O)[C@H](Cc1ccccc1)NC(=O)O[C@H]1CCOC1)S(=O)(=O)c1ccc(N)cc1

>  <studySystem>
HIV with mutations in the HIV protease sequence

>  <assignedClass>
Satisfied

$$$$
>  <molSmiles>
Cc1c(O)cccc1C(=O)N[C@@H](CSc1ccccc1)[C@H](O)CN1C[C@H]2CCCC[C@H]2C[C@H]1C(=O)NC(C)(C)C

>  <studySystem>
HIV with mutations in the HIV protease sequence

>  <assignedClass>
Satisfied

$$$$
>  <molSmiles>
CC(C)(C)NC(=O)[C@@H]1CN(Cc2cccnc2)CCN1C[C@@H](O)C[C@@H](Cc1ccccc1)C(=O)N[C@H]1c2ccccc2C[C@H]1O

>  <studySystem>
HIV with mutations in the HIV protease sequence

>  <assignedClass>
Not satisfied

$$$$

###

- Test system: HIV with mutations in the HIV protease sequence
- assay: Phenotypic fold resistance to protease inhibitors, protease mutations 84A/84L/84C/54M/54L/54V in a background (Examples 8-13)
- Format: cell-based, HIV-1
- conditionSet: Table 13, V20160, genotype WT
The following compounds are shown together with reported Fold change in IC50 values.
quantityKind: Fold change in IC50

>  <compound>
CC(C)(C)NC(=O)[C@@H]1C[C@@H]2CCCC[C@@H]2CN1C[C@@H](O)[C@H](Cc1ccccc1)NC(=O)[C@H](CC(N)=O)NC(=O)c1ccc2ccccc2n1 [Saquinavir, saquinavir]

>  <studySystem>
HIV with mutations in the HIV protease sequence

>  <val>
0.9 fold

$$$$
>  <compound>
CC(C)CN(C[C@@H](O)[C@H](Cc1ccccc1)NC(=O)O[C@H]1CCOC1)S(=O)(=O)c1ccc(N)cc1 [Amprenavir, amprenavir]

>  <studySystem>
HIV with mutations in the HIV protease sequence

>  <val>
1.0 fold

$$$$
>  <compound>
CC(C)(C)NC(=O)[C@@H]1CN(Cc2cccnc2)CCN1C[C@@H](O)C[C@@H](Cc1ccccc1)C(=O)N[C@H]1c2ccccc2C[C@H]1O [Indinavir, indinavir]

>  <studySystem>
HIV with mutations in the HIV protease sequence

>  <val>
0.9 fold

$$$$
>  <compound>
Cc1c(O)cccc1C(=O)N[C@@H](CSc1ccccc1)[C@H](O)CN1C[C@H]2CCCC[C@H]2C[C@H]1C(=O)NC(C)(C)C [Nelfinavir, nelfinavir]

>  <studySystem>
HIV with mutations in the HIV protease sequence

>  <val>
0.7 fold

$$$$
>  <compound>
CC(C)c1nc(CN(C)C(=O)N[C@H](C(=O)N[C@@H](Cc2ccccc2)C[C@H](O)[C@H](Cc2ccccc2)NC(=O)OCc2cncs2)C(C)C)cs1 [Ritonavir, ritonavir]

>  <studySystem>
HIV with mutations in the HIV protease sequence

>  <val>
0.6 fold

$$$$

###

- System: HIV with mutations in the HIV protease sequence
- assay: Phenotypic fold resistance to protease inhibitors, protease mutations 84A/84L/84C/54M/54L/54V in a background (Examples 8-13)
- Assay type: cell-based, HIV-1
- conditionSet: Table 9 #11, protease genotype 46I + 71V

>  <molSmiles>
CC(C)(C)NC(=O)[C@@H]1C[C@@H]2CCCC[C@@H]2CN1C[C@@H](O)[C@H](Cc1ccccc1)NC(=O)[C@H](CC(N)=O)NC(=O)c1ccc2ccccc2n1

>  <unitsLabel>
fold

>  <mean fold increase in resistance>
0.6

$$$$
>  <molSmiles>
CC(C)CN(C[C@@H](O)[C@H](Cc1ccccc1)NC(=O)O[C@H]1CCOC1)S(=O)(=O)c1ccc(N)cc1

>  <unitsLabel>
fold

>  <mean fold increase in resistance>
2.2

$$$$
>  <molSmiles>
CC(C)c1nc(CN(C)C(=O)N[C@H](C(=O)N[C@@H](Cc2ccccc2)C[C@H](O)[C@H](Cc2ccccc2)NC(=O)OCc2cncs2)C(C)C)cs1

>  <unitsLabel>
fold

>  <mean fold increase in resistance>
1.4

$$$$
>  <molSmiles>
Cc1c(O)cccc1C(=O)N[C@@H](CSc1ccccc1)[C@H](O)CN1C[C@H]2CCCC[C@H]2C[C@H]1C(=O)NC(C)(C)C

>  <unitsLabel>
fold

>  <mean fold increase in resistance>
1

$$$$
>  <molSmiles>
CC(C)(C)NC(=O)[C@@H]1CN(Cc2cccnc2)CCN1C[C@@H](O)C[C@@H](Cc1ccccc1)C(=O)N[C@H]1c2ccccc2C[C@H]1O

>  <unitsLabel>
fold

>  <mean fold increase in resistance>
3.7

$$$$

###

Below, each entry is listed with its recorded mean fold increase in resistance.
- Test system: HIV with mutations in the HIV protease sequence
- assay: Phenotypic fold resistance to protease inhibitors, protease mutations 84A/84L/84C/54M/54L/54V in a background (Examples 8-13)
- Type: cell-based, HIV-1
- conditionSet: Table 11 #3, protease genotype 84C

>  <molSmiles>
CC(C)(C)NC(=O)[C@@H]1CN(Cc2cccnc2)CCN1C[C@@H](O)C[C@@H](Cc1ccccc1)C(=O)N[C@H]1c2ccccc2C[C@H]1O

>  <mean fold increase in resistance / fold>
2.7

$$$$
>  <molSmiles>
CC(C)(C)NC(=O)[C@@H]1C[C@@H]2CCCC[C@@H]2CN1C[C@@H](O)[C@H](Cc1ccccc1)NC(=O)[C@H](CC(N)=O)NC(=O)c1ccc2ccccc2n1

>  <mean fold increase in resistance / fold>
26.4

$$$$
>  <molSmiles>
CC(C)c1nc(CN(C)C(=O)N[C@H](C(=O)N[C@@H](Cc2ccccc2)C[C@H](O)[C@H](Cc2ccccc2)NC(=O)OCc2cncs2)C(C)C)cs1

>  <mean fold increase in resistance / fold>
2.9

$$$$
>  <molSmiles>
CC(C)CN(C[C@@H](O)[C@H](Cc1ccccc1)NC(=O)O[C@H]1CCOC1)S(=O)(=O)c1ccc(N)cc1

>  <mean fold increase in resistance / fold>
5.9

$$$$
>  <molSmiles>
Cc1c(O)cccc1C(=O)N[C@@H](CSc1ccccc1)[C@H](O)CN1C[C@H]2CCCC[C@H]2C[C@H]1C(=O)NC(C)(C)C

>  <mean fold increase in resistance / fold>
51.2

$$$$

###

- Test system: HIV with mutations in the HIV protease sequence
- assay: Phenotypic fold resistance to protease inhibitors, protease mutations 84A/84L/84C/54M/54L/54V in a background (Examples 8-13)
- Assay type: cell-based, HIV-1
- conditionSet: Virco ID V052965; genotype 10I + 54V + 77I + 90M; vs mean IC50 of wild type laboratory HIV strain
Below is a list of entries, each paired with its recorded Fold change in IC50 value.

>  <molSmiles>
CC(C)CN(C[C@@H](O)[C@H](Cc1ccccc1)NC(=O)O[C@H]1CCOC1)S(=O)(=O)c1ccc(N)cc1

>  <Fold change in IC50 [fold]>
0.7

$$$$
>  <molSmiles>
CC(C)(C)NC(=O)[C@@H]1C[C@@H]2CCCC[C@@H]2CN1C[C@@H](O)[C@H](Cc1ccccc1)NC(=O)[C@H](CC(N)=O)NC(=O)c1ccc2ccccc2n1

>  <Fold change in IC50 [fold]>
6.3

$$$$
>  <molSmiles>
CC(C)c1nc(CN(C)C(=O)N[C@H](C(=O)N[C@@H](Cc2ccccc2)C[C@H](O)[C@H](Cc2ccccc2)NC(=O)OCc2cncs2)C(C)C)cs1

>  <Fold change in IC50 [fold]>
12.5

$$$$
>  <molSmiles>
CC(C)(C)NC(=O)[C@@H]1CN(Cc2cccnc2)CCN1C[C@@H](O)C[C@@H](Cc1ccccc1)C(=O)N[C@H]1c2ccccc2C[C@H]1O

>  <Fold change in IC50 [fold]>
8.2

$$$$
>  <molSmiles>
Cc1c(O)cccc1C(=O)N[C@@H](CSc1ccccc1)[C@H](O)CN1C[C@H]2CCCC[C@H]2C[C@H]1C(=O)NC(C)(C)C

>  <Fold change in IC50 [fold]>
15.1

$$$$

###

- System: HIV with mutations in the HIV protease sequence
- assay: Phenotypic fold resistance to protease inhibitors, protease mutations 84A/84L/84C/54M/54L/54V in a background (Examples 8-13)
- Format: cell-based, HIV-1
- conditionSet: Table 13, V19263, genotype 77I
quantityKind: Fold change in IC50 (fold)

>  <molSmiles>
CC(C)(C)NC(=O)[C@@H]1C[C@@H]2CCCC[C@@H]2CN1C[C@@H](O)[C@H](Cc1ccccc1)NC(=O)[C@H](CC(N)=O)NC(=O)c1ccc2ccccc2n1

>  <unitsLabel>
fold

>  <val>
0.3

$$$$
>  <molSmiles>
CC(C)c1nc(CN(C)C(=O)N[C@H](C(=O)N[C@@H](Cc2ccccc2)C[C@H](O)[C@H](Cc2ccccc2)NC(=O)OCc2cncs2)C(C)C)cs1

>  <unitsLabel>
fold

>  <val>
0.4

$$$$
>  <molSmiles>
CC(C)(C)NC(=O)[C@@H]1CN(Cc2cccnc2)CCN1C[C@@H](O)C[C@@H](Cc1ccccc1)C(=O)N[C@H]1c2ccccc2C[C@H]1O

>  <unitsLabel>
fold

>  <val>
0.4

$$$$
>  <molSmiles>
CC(C)CN(C[C@@H](O)[C@H](Cc1ccccc1)NC(=O)O[C@H]1CCOC1)S(=O)(=O)c1ccc(N)cc1

>  <unitsLabel>
fold

>  <val>
0.6

$$$$
>  <molSmiles>
Cc1c(O)cccc1C(=O)N[C@@H](CSc1ccccc1)[C@H](O)CN1C[C@H]2CCCC[C@H]2C[C@H]1C(=O)NC(C)(C)C

>  <unitsLabel>
fold

>  <val>
0.9

$$$$
